Data origin, for the record: patent US10342781B2

- test_system: CCR1 (Homo sapiens, UniProt P32246)
- Sequence (P32246 1-355): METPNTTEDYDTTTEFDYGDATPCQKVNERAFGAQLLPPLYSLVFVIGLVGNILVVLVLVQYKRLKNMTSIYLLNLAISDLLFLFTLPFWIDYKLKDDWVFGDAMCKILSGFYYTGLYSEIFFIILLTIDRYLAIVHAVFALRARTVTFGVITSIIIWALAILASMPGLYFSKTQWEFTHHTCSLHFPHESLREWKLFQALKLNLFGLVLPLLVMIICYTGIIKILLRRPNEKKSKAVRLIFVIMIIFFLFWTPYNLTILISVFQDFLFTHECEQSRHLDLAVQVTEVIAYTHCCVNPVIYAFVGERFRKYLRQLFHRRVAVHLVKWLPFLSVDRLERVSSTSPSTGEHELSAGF
- method_notes: Chemotaxis (migration) assay
- experimental_context: THP-1 or monocyte cells, CCR1 chemokine ligand (MIP-1α, CCL15/Leukotactin), 1-2 hours at 37° C.
endpoint_name: IC50

# compound, test_system, IC50
measured = [
    ("Cc1nc(C(F)(F)F)cn1C(C)C(=O)Nc1cnn(-c2ccc(F)cc2)c1C (stereo not drawn) [1.024]", "CCR1 (Homo sapiens, UniProt P32246)", "100 to 10000 nM"),
    ("Cc1nc(C(F)(F)F)cn1C(C)C(=O)Nc1cnn(-c2ccc(F)cc2)c1C(C)(C)C (stereo not drawn) [1.013]", "CCR1 (Homo sapiens, UniProt P32246)", "100 to 10000 nM"),
]

Recorded IC50 of Cc1nc(C(F)(F)F)cn1C(C)C(=O)Nc1cnn(-c2ccc(Cl)cc2)c1C(C)C (stereo not drawn) [1.015] , please.
≤ 100 nM

Do the same for Cc1nc(C(F)(F)F)cn1C(C)C(=O)Nc1cnn(-c2ccc(F)cc2)c1OC(C)C (stereo not drawn) [1.005] please
100 to 10000 nM

Do the same for Cc1nc(C(F)(F)F)c2n1C(C(=O)Nc1cnn(-c3ccc(Cl)cc3)c1C(C)C)CCC2 (stereo not drawn) [1.012] please
≤ 100 nM

Do the same for Cc1c(Cl)c(C(F)(F)F)nn1C(C)(C)C(=O)Nc1cnn(-c2ccc(F)cc2)c1C(C)C [1.007] please
100 to 10000 nM

Do the same for Cc1c(Cl)c(C(F)(F)F)nn1CC(=O)Nc1cnn(-c2ccc(F)cc2)c1C [1.025] please
100 to 10000 nM

Do the same for Cc1c(Cl)c(C(F)(F)F)nn1CC(=O)N(C)c1cnn(-c2ccc(F)cc2)c1 [1.026] please
100 to 10000 nM

Do the same for CCC(C(=O)Nc1cnn(-c2ccc(F)cc2)c1C(C)C)n1cc(C(F)(F)F)nc1C (stereo not drawn) [1.019] please
≤ 100 nM

Do the same for Cc1nc(C(F)(F)F)cn1C(C)C(=O)Nc1cnn(-c2ccc(F)cc2)c1C(C)C (stereo not drawn) [1.018] please
≤ 100 nM

Do the same for Cc1c(Cl)c(C(F)(F)F)nn1CC(=O)Nc1cnn(-c2ccc(F)cc2)c1C(C)C [1.022] please
≤ 100 nM

Do the same for CCOc1c(NC(=O)C(C)n2cc(C(F)(F)F)nc2C)cnn1-c1ccc(F)cc1 (stereo not drawn) [1.006] please
100 to 10000 nM
